- target.desc: T1, human GITR (Glucocorticoid-induced TNFR-related gene, TNFRSF18) (human, UniProt Q9Y5U5 26-241)
- T1 sequence: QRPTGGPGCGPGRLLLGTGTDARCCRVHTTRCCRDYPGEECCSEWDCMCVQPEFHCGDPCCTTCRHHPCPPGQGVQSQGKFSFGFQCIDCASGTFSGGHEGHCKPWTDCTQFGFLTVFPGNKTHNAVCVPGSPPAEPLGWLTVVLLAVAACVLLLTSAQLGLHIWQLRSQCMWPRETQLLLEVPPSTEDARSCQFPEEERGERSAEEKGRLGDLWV
- protocol.text: cell-based or functional assay
Field: IFNg Secretion (Fold over CD3). Provide a value for each of the binders that follow.
All answers are understood in fold over CD3, so give the number only.

Enquiry: # IFNg Secretion (Fold over CD3) lookup, item 1D7 (antibody, human IgG1, kappa, V domains shown, Fully human parental antibody; also called Ab1; SS-10942) VH: QVQLVESGGGVVQPGRSLRLSCAASGFTFSSYGMHWVRQAPGKGLEWVTVIWYEGSNKYYADSVKGRFTISRDNSKNTLYLQMNSLRAEDTAVYYCARGGQLGKYYYYGMDVWGQGTTVTVSS VL: DIQMTQSPSSLSASVGDRVTITCRASQGIRNDLGWYQQKPGKAPKRLIYDASSLQSGVPSRFSGSGSGTEFTLTISSLQPEDFATYYCLQHNNYPWTFGQGTKVEIKR
Return: 2.2

Enquiry: IFNg Secretion (Fold over CD3) for 41G5 (antibody, human IgG1, kappa, V domains shown, Fully human parental antibody; also called Ab7; SS-12428) VH: QVQLVESGGGVVQPGRSLRLSCAASGFTFSSYGMHWVRQAPGKGLEWVAVIWYPGSNKYYADSVKGRFTISRDNSKNTLYLQMNSLRAEDTAVYYCARGGELGRYYYYGMDVWGQGTTVTVSS VL: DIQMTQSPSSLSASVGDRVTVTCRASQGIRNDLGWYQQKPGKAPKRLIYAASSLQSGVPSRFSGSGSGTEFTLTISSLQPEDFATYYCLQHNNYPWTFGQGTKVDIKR ?
Return: 1.9

Enquiry: Looking for the measured IFNg Secretion (Fold over CD3) of 41E11 (antibody, human IgG1, kappa, V domains shown, Fully human parental antibody; also called Ab6; SS-12417) VH: QVQVVESGGGVVQPGRSLRLSCAASGFTFSSYGMYWVRQAPGKGLEWVAVIWYEGSNKYYADSVRGRFTISRDNSKNTLYLQMNSLRAEDTALYYCARGGQLGKDYYSGMDVWGQGTTVTVSS VL: DIQMTQSPSSLSASVGDRVTITCRASQVIRNDLGWYQQKPGKAPKRLIYAASSLQSGVPSRFSGSGSGTEFTLTISSLQPEDFATYYCLQHNSYPLTFGGGTKVEIKR , can you help?
Return: 2

Enquiry: What IFNg Secretion (Fold over CD3) value was documented for this binder, 9H6 (antibody, human IgG1, kappa, V domains shown, Fully human parental antibody; also called Ab19; SS-10945) VH: QVQLVESGGGVVQPGRSLRLSCVASGFTFSSYGMHWIRQAPGKGLEWVAVIWYEGSNKYYADSVKGRFTISRDNSKNTLYLQMNSLRAEDTAVYYCARGGRLGKDYYSGMDVWGQGTTVTVSS VL: DIQMTQSPSSLSASVGDRVTITCRASQGIRNDLGWYQQKPGKAPNRLIYATSSLQSGVPSRFSGSGSGTEFTLTISSLQPEDFATYYCLQHNTYPWTFGQGTKVEIKR ?
Return: 1.9

Enquiry: Entry 46E11 (antibody, human IgG1, kappa, V domains shown, Fully human parental antibody; also called Ab11; SS-12421) VH: QVQLVESGGGVVQPGRSLRLSCAASGFTFSSYGMHWVRQAPGKGLEWVAVIWYAGSNKYYADSVKGRFTISRDNSKNTLYLQMNSLRAEDTAVYYCARGDILTGYSLYYGMDVWGQGTTVTVSS VL: DIQMTQSPSSLSASVGDRVTITCRASQGIRNDLGWYQQKPGKAPKRLIYAASSLQSGVPSRFSGSGSGAEFTLTISSLQPEDFATYYCLQHNSYPWTFGQGTKVEIKR has what IFNg Secretion (Fold over CD3)?
Return: 2.2
